For each entry below, report its protein stability index value.
B1: TMEM175 (parent)
chain: ALLHQAETLQPSVWFGGREHVLMF

Variants of: B1
Test: protein stability index of a GFP-peptide fusion (GPS, HEK-293T) (PSI 1-6); higher = more stable;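 further: lentivirally expressed fusions sorted by FACS into six bins by GFP to DsRed ratio, PSI derived from sequencing read proportions per bin multiplied by bin number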
Settings: c terminus: a fixed tail appended
One number for each entry.

Answered cases to consult:
RESIDUE_CODES: ALLHQAETLQPSVWFGGREHVEMF [L22E]
READOUT_NUMBER: 2.09

RESIDUE_CODES: ALLHQAETFQPSVWFGGREHVLMF [L9F]
READOUT_NUMBER: 2.49

RESIDUE_CODES: ALLHQAETLQPSVYFGGREHVLMF [W14Y]
READOUT_NUMBER: 2.11

RESIDUE_CODES: ALLHQAESLQPSVWFGGREHVLMF [T8S]
READOUT_NUMBER: 1.65

RESIDUE_CODES: ALLHQAETLQPSVWFGEREHVLMF [G17E]
READOUT_NUMBER: 1

// each variant listed below needs its protein stability index
1. ALLHQAETLQHSVWFGGREHVLMF [P11H]
2. ALLHQAETLQPSVWEGGREHVLMF [F15E]
3. ALLHQAETLQPSYWFGGREHVLMF [V13Y]

1. 1.77
2. 1.57
3. 1.69

// each variant listed below needs its protein stability index
1. ALLHQAETLQPSVWFGGRNHVLMF [E19N]
2. ALLHQAETLQPSVWFGGAEHVLMF [R18A]
3. ALLHQAETLQPSVWCGGREHVLMF [F15C]

1.42
2.59
2.5
